System: OVCAR-4 ovarian
Experiment: NCI-60 one-dose screen, 48 h
Conditions: 10 µM unless noted
This is part of a sample that, as a whole, favours compounds with a hit. Of some 83,000 tested, about 20% had one in any assay. Activity calls are given as the source filed them. The calls were made as follows: active = growth percent below 10; inactive = the rest.
Pick one: yes (1) = active, no (0) = inactive

Task: I would be grateful if you could indicate the recorded call for Cc1c(C)c([N+](=O)[O-])c(C)c([N+](=O)[O-])c1C .
Result: no (0)

Task: Given O=C(/C(=C\c1ccc([N+](=O)[O-])cc1)S(=O)Cc1ccc(Cl)cc1)c1ccc(Cl)cc1 (stereo not drawn) , state the outcome it received in this test.
Result: no (0)

Task: Given Cc1ccc(S(=O)(=O)NNC(=O)/C(=C\c2ccc(Cl)cc2)c2nc3ccccc3s2)cc1 , state the outcome it received in this test.
Result: no (0)

Task: Assay result, entry COc1cc(F)c(/C=C/c2cc(/C=C/c3cc(OC)c(OC)cc3F)on2)cc1OC — outcome?
Result: no (0)

Task: Name the outcome recorded for CCc1ccc(-c2cn3ccnc3c(-c3ccc4ncn(Cc5ccccc5)c4c3)n2)cc1 in the assay.
Result: no (0)

Task: Returns: the outcome recorded for C=C(C)[C@@H]1CC[C@]2(CN)CC[C@]3(C)[C@H](CC[C@@H]4[C@@]5(C)CCCNC(C)(C)[C@@H]5CC[C@]43C)[C@@H]12 in this assay.
Result: yes (1)

Task: Recorded call for CN1CCN(CCNc2nccc(-c3c(-c4cccc(O)c4)nc4sccn34)n2)S1(=O)=O ?
Result: no (0)

Task: Can you look up the reported call for CC1(C)CC[C@]23CC[C@]4(C)[C@H](CC[C@@H]5[C@@]6(C)CCCNC(C)(C)[C@@H]6CC[C@]54C)[C@H]2[C@H]1OC3 for me?
Result: yes (1)

Task: Assay result, entry CC(C)N1C(=O)S/C(=C2/SC(=O)N(C(C)C)C2=O)C1=O — outcome?
Result: no (0)

Task: Short answer needed: outcome of this test for O=C(/C=C/c1ccc(F)cc1)c1ccc(NC(=O)N2CCN(c3cc4c(cc3F)c(=O)c(C(=O)O)cn4C3CC3)CC2)cc1 ?
Result: no (0)

Task: Which outcome was assigned to CCCCNC(=O)Oc1ccc(/C(=C(\C)c2ccccc2)c2ccc(OCCN3CCCCC3)cc2)cc1 in this test?
Result: no (0)

Task: Called result for O=C(Nc1cccc(C(=O)N2CCc3ccc(Cl)cc32)c1)c1ccco1
Result: no (0)

Task: Any idea what this test logged for Cn1ccnc1C(=O)/C=C/c1ccc(CC(=O)Nc2ccc(Cl)cc2)cc1 ?
Result: no (0)

Task: Tell me the recorded outcome of this test for CN1[C@@H]2CC[C@H]1/C(=C\c1ccccc1)C(=O)/C2=C/c1ccccc1 .
Result: no (0)

Task: # outcome recorded in this test, key = COc1ccc(/C=C/C(=O)Nc2cc(/C=C\c3cc(OC)c(OC)c(OC)c3)cc(OC)c2OC)cc1OC
Result: no (0)

Task: Dear colleague, could you share the recorded outcome for CCN1C(=O)/C(=C/C(=O)OC)S/C1=N\NC(=O)c1cc2ccc1/C=C\c1ccc(cc1)/C=C\2 when you have a moment?
Result: no (0)

Task: Fill in: this test's call for COc1ccc(-c2cnc3c(-c4cccc5cnccc45)cnn3c2)cc1 is ___
Result: no (0)

Task: What call does the record list for Cc1ccc(C(=O)/C(=C/c2ccc([N+](=O)[O-])cc2)SCc2ccc(Cl)cc2)cc1 ?
Result: no (0)

----------
Test system: COLO 205 colon
Assay: NCI-60 one-dose screen, 48 h (100 = growth as untreated, 0 = no growth, -100 = all killed)
Conditions: 10 µM unless noted
This is part of a sample that, as a whole, favours compounds with a hit. Of some 83,000 tested, about 20% had one in any assay. Active and inactive are the calls of the source. The calls were made as follows: active = growth percent below 10; inactive = the rest.
REPORTED PROPERTY: growth

Task: For N#CC(C#N)=Cc1cc2ccccc2nc1Oc1ccc(C(F)(F)F)cc1 , write its growth.
Result: 101% (inactive)

Task: Supply measured growth of O=S(=O)(NCCNc1nccc(-c2c(-c3cccc(O)c3)nc3occn23)n1)c1ccccc1 in your reply.
Result: 34.6% (inactive)

Task: Give a short answer stating reported growth for COc1ccc(-c2cnc3c(-c4cccc5cnccc45)cnn3c2)cc1 .
Result: 67.8% (inactive)

Task: Consider the compound CCCCCCCCCCCCCCCC[N+]1(C)CCN(SN2CC[N+](C)(CCCCCCCCCCCCCCCC)CC2)CC1 and give its recorded growth.
Result: 61% (inactive)

Task: Read off the recorded growth for COc1cc(/C(C)=C(\c2ccc(Cl)cc2)c2ccc(OCCN3CCCC3)cc2)ccc1F
Result: 16.3% (inactive)

Task: Note growth for the compound shown: O=C(Cn1c[n+](CC(=O)c2ccc([N+](=O)[O-])cc2)c2ccccc21)Nc1cccc2cccnc12
Result: 23.9% (inactive)

Task: Item Nc1n[nH]c2cccc(C#Cc3cccc(C(=O)Nc4cccc(C(F)(F)F)c4)c3)c12 : provide growth
Result: 49.8% (inactive)

Task: Tell me measured growth for Cc1nc2sccn2c1-c1nc2sccn2c1/C=C1/C(=O)Nc2ccccc21 please.
Result: 20.1% (inactive)

Task: Input COc1ccc(/C=C/c2nc(Nc3ccc(S(=O)(=O)NC(C)=O)cc3)c3ccccc3n2)cc1 , output reported growth.
Result: 49.7% (inactive)

Task: Report growth, nothing else, for this compound: COc1ccc2c(c1)oc1c(C)c3c(c(C)c12)C(=O)N(CCN1CCOCC1)C3=O
Result: 109% (inactive)

Task: Hello, please tell me recorded growth for this one: CCCOC(=O)N[C@H]1CCc2cc(OC)c(OC)c(OC)c2-c2ccc(SC)c(=O)cc21
Result: 1.57% (active)

Task: Item COC(=O)/C=C1\S/C(=N\NC(=O)c2cc3ccc2/C=C\c2ccc(cc2)/C=C\3)N(Cc2ccccc2)C1=O : provide growth
Result: 72.7% (inactive)

Task: Report measured growth; entry is C=C(CBr)[C@@H]1CC[C@]2(COC(C)=O)CC[C@]3(C)[C@H](CC[C@@H]4[C@@]5(C)CCCNC(C)(C)[C@@H]5CC[C@]43C)[C@@H]12
Result: 48.1% (inactive)

Task: Identify the reported growth for the following entry. O=C(/C=C/c1c(-c2ccc(Cl)cc2)nn(-c2ccccc2)c1C(F)(F)F)c1ccc(Cl)cc1
Result: 110% (inactive)

Task: Please give measured growth of the following entry: O=C(Nc1cccc(C2=NCCN2)c1)c1ccc(-c2ccc(C(=O)Nc3cccc(C4=NCCN4)c3)cc2)cc1
Result: 43.9% (inactive)

Task: Answer with reported growth of Cc1ccc(NS(=O)(=O)c2ccc(-c3cnc(C4CC4)o3)cc2)cc1C(F)(F)F
Result: 67.5% (inactive)

Task: Dear colleague, please send me the reported growth for COc1ccccc1NS(=O)(=O)c1cccc(C(=O)Nc2ccc(Br)cc2)c1 when you can.
Result: 57.9% (inactive)

Task: Quick one: give measured growth for CCCCCC(=O)Oc1ccc(/C(=C(\C)c2ccccc2)c2ccc(OCCN3CCCCC3)cc2)cc1
Result: 34.4% (inactive)

----------
Test system: A549/ATCC NSCLC
Experiment: NCI-60 one-dose screen, 48 h (100 = growth as untreated, 0 = no growth, -100 = all killed)
Conditions: 10 µM unless noted
The panel holds about 83,000 compounds, 20% with a hit somewhere; the sample as a whole holds those more often.
We use 30% as the dividing line for growth: on or above the line is satisfied, below is not satisfied.

Task: Reported growth at or above 30%? COc1ccccc1/C(C)=N/NC(=O)CSc1nc2ccccc2c(=O)n1Cc1ccc(S(N)(=O)=O)cc1
Result: satisfied

Task: Would you say O=C1Nc2cc(Cl)ccc2/C1=C\c1c(-c2ccc(F)cc2)nc2ccccn12 shows growth at minimum 30%?
Result: satisfied

Task: Kindly determine if growth recorded for CC(=O)O[C@@H]1C2CCC3C(CC[C@@]4(C)C3CC[C@@H]4C(C)N(C)C)[C@@]2(C)CC[C@@H]1NC(=O)C=C(C)C (some centres undefined) is above or exactly 30%.
Result: satisfied

Task: Check the entry c1ccc(Cn2cnc3ccc(-c4nc(-c5ccc6c(c5)ncn6C5CCCCC5)cn5ccnc45)cc32)cc1 : does growth equal or exceed 30%?
Result: not satisfied

Task: growth >= 30% for CCCCCCCCCCCCCCCC[N+]1(C)CCN(SN2CC[N+](C)(CCCCCCCCCCCCCCCC)CC2)CC1 ?
Result: satisfied

Task: Item COc1cc2cc(Oc3cccc(NC(=O)Nc4cc(C(F)(F)F)cc(C(F)(F)F)c4)c3)c(C)nc2cc1OC with growth of 30% or above?
Result: not satisfied

Task: For this compound, is measured growth 30% or higher? N#Cc1c(NC(=O)NCc2ccccc2)sc2c1CCCCC2
Result: not satisfied

Task: Check this compound for growth at or above 30%: Cc1cccc(-c2cn3ccnc3c(-c3ccc4ncn(Cc5ccccc5)c4c3)n2)c1
Result: satisfied

Task: Tell me whether growth is at least 30% here: O=C(Nc1ccc(F)cc1)Nc1ccc(NC(=O)c2cc(Cl)nc3ccccc23)cc1
Result: satisfied

Origin of measurements: PubChem BioAssay (NCI)
